Test: log P by HPLC on reversed-phase column (C 18), EEC Directive 79/831 Annex V.A8
Format: physicochemical
Details: log P (HCOOH), acidic range pH 2.7, 0.1% aqueous formic acid and acetonitrile; reversed-phase column (C 18), 55° C.
Observable: LOGP_HCOOH

                                    compound  observable  value
 0  N#Cc1ccc(CNC(=O)c2cc(-c3cc(F)c(C(F)(F)C(F)(F)F)c(F)c3F)cc(NC(=O)C3CC3)n2)cc1  LOGP_HCOOH   4.28
 1  N#Cc1ccc(CNC(=O)c2cc(-c3ccc(OC(F)(F)F)cc3)cc(NC(=O)C3(C(F)(F)F)CC3)n2)cc1  LOGP_HCOOH   4.57
 2  COc1ccc(CNC(=O)c2cc(-c3ccc(OC(F)(F)F)cc3)cc(NC(=O)C3CC3)n2)cc1  LOGP_HCOOH   4.22
 3  C#CCNC(=O)c1cc(-c2ccc(C(F)(F)F)cc2)cc(NC(=O)C2CC2)n1  LOGP_HCOOH   3.34
 4  N#Cc1cc(F)c(CNC(=O)c2cc(-c3ccc(C(F)(F)F)cc3)cc(NC(=O)C3CC3)n2)cc1F  LOGP_HCOOH   4.05
 5  N#Cc1ccc(CNC(=O)c2cc(-c3ccc(C(F)(F)C(F)(F)F)c(F)c3Cl)cc(NC(=O)C3CC3)n2)cc1  LOGP_HCOOH   4.34
 6  N#Cc1ccc(CNC(=O)c2cc(-c3ccc(OC(F)(F)F)cc3)cc(NC(=O)C3CC3)n2)c(F)c1  LOGP_HCOOH   4.03
 7  CC(NC(=O)c1cc(-c2ccc(C(F)(F)F)cc2)cc(NC(=O)C2CC2)n1)c1ccc(C(F)(F)F)cc1 (centres unmarked)  LOGP_HCOOH   4.91
 8  N#Cc1ccc(CNC(=O)c2cc(-c3ccc(C(F)(F)F)cc3)cc(NC(=O)C3CC3)n2)cn1  LOGP_HCOOH   3.36
 9  O=C(NCC1CC1)c1cc(-c2ccc(C(F)(F)F)cc2)cc(NC(=O)C2CC2)n1  LOGP_HCOOH   3.78
10  N#Cc1ccc(ONC(=O)c2cc(-c3ccc(OC(F)(F)F)cc3)cc(NC(=O)C3CC3)n2)cc1  LOGP_HCOOH   3.72
11  N#Cc1ccc(CNC(=O)c2cc(-c3c(Cl)cc(C(F)(F)C(F)(F)F)c(F)c3Cl)cc(NC(=O)C3CC3)n2)cc1  LOGP_HCOOH   4.57
12  N#Cc1ccc(CCNC(=O)c2cc(-c3ccc(C(F)(F)F)cc3)cc(NC(=O)C3CC3)n2)cc1  LOGP_HCOOH   3.80
13  O=C(NCC(F)(F)F)c1cc(-c2ccc(C(F)(F)F)cc2)cc(NC(=O)C2CC2)n1  LOGP_HCOOH   3.82
14  N#Cc1cccc(CNC(=O)c2cc(-c3ccc(C(F)(F)F)cc3)cc(NC(=O)C3CC3)n2)c1  LOGP_HCOOH   3.83
15  N#Cc1ccc(CNC(=O)c2cc(-c3ccc(Br)c(F)c3)cc(NC(=O)C3CC3)n2)cc1  LOGP_HCOOH   3.75
16  CC(C#N)NC(=O)c1cc(-c2ccc(C(F)(F)C(F)(F)F)c(F)c2)cc(NC(=O)C2CC2)n1 (centres unmarked)  LOGP_HCOOH   3.94

----------
Experiment: log P by HPLC on reversed-phase column (C 18), EEC Directive 79/831 Annex V.A8
Assay type: physicochemical
Conditions: log P (HCOOH), acidic range pH 2.7, 0.1% aqueous formic acid and acetonitrile; reversed-phase column (C 18), 55° C.
Observable: LOGP_HCOOH

In [3]: df
Out[3]:
                                    compound  value
 0  N#Cc1ccc(CNC(=O)c2cc(-c3ccc(I)cc3)cc(NC(=O)C3CC3)n2)cc1   3.87
 1  N#Cc1ccc(CNC(=O)c2cc(-c3c(Cl)cc(C(F)(F)C(F)(F)F)cc3Cl)cc(NC(=O)C3CC3)n2)cc1 [Example I-265]   4.51
 2  N#Cc1ccc(CNC(=O)c2cc(-c3ccc(C(F)(F)F)cc3)cc(NC(=O)C3CC3)n2)cc1   3.73
 3  O=C(NC1CC1)c1cc(-c2ccc(OC(F)F)cc2)cc(NC(=O)C2CC2)n1   2.94
 4  O=C(Nc1ccc(Cl)cc1)c1cc(-c2ccc(C(F)(F)F)cc2)cc(NC(=O)C2CC2)n1   4.96
 5  CC(C)C(=O)Nc1cc(-c2ccc(C(F)(F)F)cc2)cc(C(=O)NC(C)c2ccc(C#N)cc2)n1 (stereo not drawn)   4.20
 6  CC(C)CNC(=O)c1cc(-c2ccc(C(F)(F)F)cc2)cc(NC(=O)C2CC2)n1   4.06
 7  N#Cc1cc(F)c(CNC(=O)c2cc(-c3ccc(OC(F)(F)F)cc3)cc(NC(=O)C3CC3)n2)cc1F   4.15
 8  O=C(NCC1CCC1)c1cc(-c2ccc(C(F)(F)F)cc2)cc(NC(=O)C2CC2)n1   4.21
 9  N#CC1(NC(=O)c2cc(-c3ccc(C(F)(F)F)cc3)cc(NC(=O)C3CC3)n2)CC1   3.28
10  O=C(NC1CC1)c1cc(-c2ccc(C(F)(F)C(F)(F)F)c(F)c2)cc(NC(=O)C2CC2)n1   3.94
11  N#Cc1ccc(CNC(=O)c2cc(-c3ccc(OC(F)(F)F)cc3)cc(NC(=O)Cc3ccc(C(F)(F)F)cc3)n2)cc1   4.68
12  N#Cc1ccc(CNC(=O)c2cc(-c3ccc(C(F)(F)F)cc3)cc(NC(=O)C3CC3)n2)cc1F   3.87
13  O=C(NCc1cccc(Cl)c1)c1cc(-c2ccc(C(F)(F)F)cc2)cc(NC(=O)C2CC2)n1   4.49
14  CN(Cc1ccc(C#N)cc1)C(=O)c1cc(-c2ccc(C(F)(F)F)cc2)cc(NC(=O)C2CC2)n1   3.67
15  N#Cc1ccc(CNC(=O)c2cc(-c3ccc(OC(F)(F)F)cc3)cc(NC(=O)C3CC3)n2)cn1   3.49
16  Cc1cc(-c2cc(NC(=O)C3CC3)nc(C(=O)NCc3ccc(C#N)cc3)c2)cc(F)c1C(F)(F)C(F)(F)F   4.45
17  N#Cc1ccc(CNC(=O)c2cc(-c3ccc(OC(F)(F)F)cc3)cc(NC(=O)C3CC3)n2)cc1F   4.01
18  COC(=O)c1ccc(CNC(=O)c2cc(-c3ccc(OC(F)(F)F)cc3)cc(NC(=O)C3CC3)n2)cc1   4.08
19  O=C(NCc1ccc(-c2ncon2)cc1)c1cc(-c2ccc(OC(F)(F)F)cc2)cc(NC(=O)C2CC2)n1   3.96
20  N#Cc1ccc(CNC(=O)c2cc(-c3ccc(Br)cc3)cc(NC(=O)C3CC3)n2)cc1   3.73

----------
Test system: Spodoptera frugiperda
Assay: Spodoptera frugiperda spray test
Format: in vivo
Conditions: Spodoptera frugiperda, foliar, 168 h; application rate 500 g/ha, after 7 days, maize leaf discs; read-out: efficacy (caterpillars killed)
Observable: pest or weed control at 500 g/ha (%)
Report only the number, with the unit % understood.

Use the examples below as a reference point.
>>> df
                                smiles_code  value
0  N#Cc1ccc(CNC(=N)c2cc(-c3ccc(OC(F)(F)F)cc3)cc(NC(=O)C3CC3)n2)cc1     83
1  COC(=O)N(Cc1ccc(C#N)cc1)C(=O)c1cc(-c2ccc(OC(F)(F)F)cc2)cc(N(C(=O)OC)C(=O)C2CC2)n1    100

Entry N#Cc1ccc(CNC(=O)c2cc(-c3ccc(C(F)(F)F)cc3)cc(N(C(=O)C3CC3)C(=O)C3CC3)n2)cc1F has what pest or weed control at 500 g/ha?
100

----------
Experiment: log P by HPLC on reversed-phase column (C 18), EEC Directive 79/831 Annex V.A8
Type: physicochemical
Conditions: log P, neutral range; HPLC on reversed-phase column (C 18), 55° C.
Observable: LOGP_NEUTRAL

>>> df
                                smiles_code  value
0  N#Cc1cc(F)c(CNC(=O)c2cc(-c3ccc(C(F)(F)F)cc3)cc(NC(=O)C3CC3)n2)cc1F   3.90
1  CC(C)C(=O)Nc1cc(-c2ccc(C(F)(F)F)cc2)cc(C(=O)NCc2cc(F)c(C#N)c(F)c2)n1   4.04
2  N#Cc1ccc(CNC(=O)c2cc(-c3ccc(OC(F)(F)F)cc3)cc(NC(=O)Cc3ccc([N+](=O)[O-])cc3)n2)cc1   4.01
3  O=C(NCC1CCC1)c1cc(-c2ccc(C(F)(F)F)cc2)cc(NC(=O)C2CC2)n1   4.10
